target: pooled human IgG (human IgG1, 2, 3 and 4)
testReadout: Enzyme Activity Endpoint Assay (purified): Fab′2

Some proteins with recorded Enzyme Activity Endpoint Assay (purified): Fab′2:
INSERT INTO results (protein, testresult) VALUES
  ('PRT-697 (protein) MTITSVWTKGVIPPTPEDFRYNNEDVLHAPYVPNQGWYDITKTFDGGDNLLCGAATAGNMLHWWFDQNKEEIERYLKKYPEKQKIIFNNQELFDVRAAINTKDSQTNSKLFNYFRDKAFPNLSARQLGVMPDLVLDMFINGYYLNLGKTQSTDVNRPYQDRDKRGGIFDHVFGRGDQTTLLTARHDLKNGGLNEISDLIKQELQSGKALALSHTYANVRINHVINLWGADFDAEGNLIAIYVTDSDANSSIGMKKYYVGVNANGKVAISAKKIEGDNIGAQVLGLFTLSTGQEIWQKLSLEHHHHHH', '701 ng/µL'),
  ('PRT-435 (protein) MSQTEDSESLQRLRDIEDFQAEKEKQNVVYTKWLDGVDVKDHDFRKIVDGNIAYYATPLLNGRGFYDINKDFNRDSDKCAAAVAANMFHYWLDRNRDNVDRFLRQNPEKHGIIELPDGQLKLSDFLNTYESDDGYRDKSKLFDFISNNFNGPVWTDKLLDNYINGYAYNYKYGRTIEDPTKNTSKINFFKEVFNEKILTNNHSIRNQNEFSVLLSEALYTGKAIGLSYGPAGLRHSLGHIISVWGADLDADGNVVAIYVTDSDDKKLTIGDERVGLKRYKISTDDEGRLRLTAYEETHNTGGQIRGLWTLDTGKQAWADYFDKTEQTGTDQAEQ', '35 ng/µL'),
  ('PRT-383 (protein) MVTSVWTKGVTPPTNFTYGEDVLHAPYVANQGWYDITKTFNGKDDLLCGAATAGNMLHWWFDQNKEQIENYLKKHPEKQKINFNGEQMFDVKEAIDTKDSQLDSKLFDYFKEKAFPYLSTKHLGVFPDHVIDMFINGYRLSLTNHGPTPVKRGSKDPRGGIFDAVFTRGDQSKLLTNRHDFKEKTLKEISDLIKQELTEGKALGISHTYANVRINHVINLWGADFDAEGNLEAIYVTDSDSNASIGMKKYFVGVNSNGKVAISAKEIEEDNIGAQVLGLFTLSTGQDIWNQTN', '581 ng/µL');

Now look at this entry.
Name the recorded Enzyme Activity Endpoint Assay (purified): Fab′2 for PRT-400 (protein) MVTSVWTKGVTPPADFTQGEDVFHAPYDANQGWYDITKTFNGKDDLLCGAATAGNMLHWWFDQNKEYIEAYLKKHPEKQKIMFGDQELLDVRKAINTKGSQKNSELFNYFRDKAFPNLSARRLGVMPDLVLDMFINGYYLNVTKTQTTDVNRTYQEKDKRGGIFDAVFTRGDQSKLLTSRHDFKEKGLKEISDLIKQELTEGKALGLSHTYANVRINHVINLWGADFDSDGNLKAIYVTDSDSNASIGMKKYFVGVNSAGKVAISAKEIKEDNIGAQVLGLFTLSTGQDIWNQTN .
556 ng/µL
